# System: MCF10A
# protocolDescription: one-nucleolus phenotype percent effect (relative to siNT 0% and siNOL11 100%); higher = more cells with one nucleolus (ribosome biogenesis inhibition)
# assayContext: 20 nM; 72 h
assayMetric: one-nucleolus phenotype percent effect (%)
Provide only the numeric value, understood in %.

See these solved cases before continuing.
# seqText, targetSystem, one-nucleolus phenotype percent effect, %
data = [
    ("CCAGUGACUGAGCUGGAGCCA [hsa-miR-5190]", "MCF10A", 29.3),
    ("CAAAGUUUAAGAUCCUUGAAGU [hsa-miR-561-3p]", "MCF10A", -26.2),
    ("UACUCAAAAAGCUGUCAGUCA [hsa-miR-888-5p]", "MCF10A", -13.4),
]

input: Data request, read-out one-nucleolus phenotype percent effect, for UCCAGCAUCAGUGAUUUUGUUG [hsa-miR-338-3p]
output: -13.2

input: Cool, now GGGCUCACAUCACCCCAU [hsa-miR-4284]
output: -1.42

----------
Listing of entries alongside the reported percent viability.
# System: MCF10A
# protocolDescription: percent viability (nuclei count relative to siNT); higher = more viable cells
# assayContext: 20 nM; 72 h
Provide only the numeric value, understood in %.

See these solved cases before continuing.
# seqText, percent viability / %
data = [
    ("UUGGGCUGGGCUGGGUUGGG [hsa-miR-1587]", 19.9),
    ("ACGGAAUAUGUAUACGGAAUAUA [hsa-miR-3669]", 95.9),
    ("AUGUAUAAAUGUAUACACAC [hsa-miR-568]", 178),
    ("CAACCACCACUGUCUCUCCCCAG [hsa-miR-6776-3p]", 91.3),
    ("CCUGAGCCCGGGCCGCGCAG [hsa-miR-1199-5p]", 71.4),
    ("GAAAAUCCUUUUUGUUUUUCCAG [hsa-miR-4668-3p]", 72.8),
    ("AUGAAGCCUUCUCUGCCUUACG [hsa-miR-7843-3p]", 37.8),
    ("AGCUGUACCUGAAACCAAGCA [hsa-miR-4718]", 77.5),
]

Attention now shifts to the item below.
input: Data request, read-out percent viability, for AAACACCAUUGUCACACUCCAC [hsa-miR-3591-3p]
output: 27.5

----------
# System: MCF10A
# protocolDescription: percent viability (nuclei count relative to siNT); higher = more viable cells
# assayContext: 20 nM; 72 h
Note to self: class labels come from recorded percent viability, ranges listed here: c1 = under 40%, c2 = from 40% up to 70%, c3 = 70% and over

Worked examples follow.
# seqText, classAssignment
measured = [
    ("UCAGGCCUCUUUCUACCUU [hsa-miR-4650-5p]", "c1"),
    ("ACCUUCCUCUCCAUGGGUCUUU [hsa-miR-3667-3p]", "c1"),
    ("AAAGUGCAUCCUUUUAGAGUGU [hsa-miR-519a-3p]", "c3"),
    ("CUACUUCUACCUGUGUUAUCAU [hsa-miR-3682-5p]", "c1"),
    ("UAGCAAAAACUGCAGUUACUUU [hsa-miR-548p]", "c3"),
]

input: Input CAGAUCAUGGGACUGUCUCAG [hsa-miR-5694] ; output its category
output: c2

input: Cool, now UCCUGCGUAGGAUCUGAGGAGU [hsa-miR-3193]
output: c2

----------
# Test system: MCF10A
# protocolDescription: percent viability (nuclei count relative to siNT); higher = more viable cells
# assayContext: 20 nM; 72 h
assayMetric: percent viability (%)
Provide only the numeric value, understood in %.

See these solved cases before continuing.
# seqText, percent viability (%)
records = [
    ("GCAGUCCAUGGGCAUAUACAC [hsa-miR-455-3p]", 112),
    ("UACAGUAUAGAUGAUGUACU [hsa-miR-144-3p]", 119),
    ("GCAGGGACAGCAAAGGGGUGC [hsa-miR-211-3p]", 38.3),
    ("ACAUACUUCUUUAUAUGCCCAU [hsa-miR-1-5p]", 47),
    ("UUCACUGGAGUUUGUUUCAAUA [hsa-miR-653-3p]", 57.9),
]

input: Hi! What's the reported percent viability for UUUCCCUUUCCAUCCUGGCAG [hsa-miR-5006-3p] on MCF10A?
output: 31.7

input: Cool, now CGUCUUACCCAGCAGUGUUUGG [hsa-miR-200c-5p]
output: 79

input: Cool, now UGCCUGGAACAUAGUAGGGACU [hsa-miR-3116]
output: 23.8

input: Cool, now AGGUCUGCAUUCAAAUCCCCAGA [hsa-miR-6503-5p]
output: 43.4

input: Cool, now UAAAACUGCAGUUAUUUUUGC [hsa-miR-548ar-3p]
output: 122

input: Cool, now AUUCUAAUUUCUCCACGUCUUU [hsa-miR-576-5p]
output: 100

input: Cool, now ACUGUUGCUAAUAUGCAACUCU [hsa-miR-367-5p]
output: 102

----------
# System: MCF10A
# protocolDescription: percent viability (nuclei count relative to siNT); higher = more viable cells
# assayContext: 20 nM; 72 h
Lab note - cut at 30% for percent viability: Criterion met if strictly below, Criterion not met if not.

# seqText, classAssignment
measured = [
    ("AUAGGCACCAAAAAGCAACAA [hsa-miR-4423-3p]", "Criterion met"),
    ("CUCCUACAUAUUAGCAUUAACA [hsa-miR-155-3p]", "Criterion not met"),
    ("UCUUCAACCUCAGGACUUGCA [hsa-miR-676-5p]", "Criterion not met"),
    ("AUGCACCUGGGCAAGGAUUCUG [hsa-miR-500a-3p]", "Criterion not met"),
    ("AUCACAUUGCCAGUGAUUACCC [hsa-miR-23c]", "Criterion not met"),
]

input: Does the reported percent viability of AGGGAGAAAGCUAGAAGCUGAAG [hsa-miR-6878-5p] stay below 30%?
output: Criterion not met

input: Cool, now AUGAGACUCAUGUAAAACAUCUU [hsa-miR-3672]
output: Criterion not met

input: Cool, now AAGGCCUUUCUGAACCUUCAGA [hsa-miR-3142]
output: Criterion met

input: Cool, now AAAGGAUUCUGCUGUCGGUCCCACU [hsa-miR-541-5p]
output: Criterion not met

input: Cool, now CAAAGACUGCAAUUACUUUUGCG [hsa-miR-548u]
output: Criterion not met

input: Cool, now UGAGAACUGAAUUCCAUGGGUU [hsa-miR-146a-5p]
output: Criterion not met

----------
# Tested on: MCF10A
# protocolDescription: percent viability (nuclei count relative to siNT); higher = more viable cells
# assayContext: 20 nM; 72 h
Note to self: class labels come from recorded percent viability, ranges listed here: I = under 50%, II = from 50% up to 70%, III = 70% and over

Worked examples follow.
# seqText, classAssignment
measured = [
    ("UACUGCAUCAGGAACUGAUUGGA [hsa-miR-217]", "II"),
    ("UGUCAGUGACUCCUGCCCCUUGGU [hsa-miR-4697-3p]", "III"),
    ("AGGCCAUCAGCAGUCCAAUGAA [hsa-miR-4529-5p]", "II"),
    ("UGUGAGGUUGGCAUUGUUGUCU [hsa-miR-1294]", "I"),
    ("CUGUACAACCUUCUAGCUUUCC [hsa-let-7c-3p]", "III"),
]

input: Input AAGAUGUGGAAAAAUUGGAAUC [hsa-miR-576-3p] ; output its category
output: I

input: Cool, now UGCACAUGGCAACCUAGCUCCCA [hsa-miR-5589-3p]
output: I

input: Cool, now UGUGUCCCAUUAUUGGUGAUU [hsa-miR-3657]
output: I

input: Cool, now AGCUCUGCUGCUCACUGGCAGU [hsa-miR-3194-3p]
output: I

input: Cool, now CCAGAGAUGGUUGCCUUCCUAU [hsa-miR-4756-3p]
output: II

input: Cool, now GAAAACGACAAUGACUUUUGCA [hsa-miR-548ad]
output: III

input: Cool, now UGAGCACCACACAGGCCGGGCGC [hsa-miR-3663-3p]
output: II

input: Cool, now AGGGAAGGGGACGAGGGUUGGG [hsa-miR-5196-5p]
output: I

input: Cool, now UAAAGUAAAUAUGCACCAAAA [hsa-miR-559]
output: III

input: Cool, now UCACAGUGAACCGGUCUCUUU [hsa-miR-128]
output: III

input: Cool, now UUCUCCAAAAGAAAGCACUUUCUG [hsa-miR-515-5p]
output: III

input: Cool, now UAUCCAGCUUGUUACUAUAUGC [hsa-miR-5586-5p]
output: I
